Can you tell me fold over mIgG control for the items I'm about to list?
experimental.system: T1, Human LRP-8 (isoform 3) expressed on cells (human, UniProt Q14114 33-963)
T1 construct: also called hLRP-8; huLRP-8
T1 sequence (Q14114 other isoform, or with tags, fused parts or gaps limits assumed): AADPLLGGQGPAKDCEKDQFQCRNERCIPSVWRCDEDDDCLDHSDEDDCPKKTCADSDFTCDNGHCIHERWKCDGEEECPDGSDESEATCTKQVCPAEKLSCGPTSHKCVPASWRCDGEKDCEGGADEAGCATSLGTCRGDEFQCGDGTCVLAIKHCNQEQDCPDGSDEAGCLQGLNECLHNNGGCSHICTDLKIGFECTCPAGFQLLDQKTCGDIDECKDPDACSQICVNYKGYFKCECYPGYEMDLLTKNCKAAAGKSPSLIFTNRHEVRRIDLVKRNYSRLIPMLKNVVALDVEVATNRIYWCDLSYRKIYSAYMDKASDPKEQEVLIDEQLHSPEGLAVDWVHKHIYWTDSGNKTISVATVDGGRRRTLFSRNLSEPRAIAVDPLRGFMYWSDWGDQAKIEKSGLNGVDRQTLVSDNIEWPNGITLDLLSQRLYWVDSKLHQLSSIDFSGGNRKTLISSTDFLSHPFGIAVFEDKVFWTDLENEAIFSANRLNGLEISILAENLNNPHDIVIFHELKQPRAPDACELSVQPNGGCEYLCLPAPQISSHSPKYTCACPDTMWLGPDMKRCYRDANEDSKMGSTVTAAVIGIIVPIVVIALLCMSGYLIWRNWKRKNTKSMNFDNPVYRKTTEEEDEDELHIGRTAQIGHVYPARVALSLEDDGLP
assay.overview: cell-based ECL-MSD, 10 ug/ml Ab, human_LRP-8_HEK293
Give your result in fold as a bare value.

-- ask Dear colleague, I am looking for the recorded fold over mIgG control of the following binder: anti-LRP-8 ML201-8F3.3D7 murine antibody (muFc) (antibody, V domains shown, Mouse Fc form; also called ML201-8F3-3D7 muFc; CL-33866) VH: EVQLVESGGDLVKPGGSLKLSCAASRFTFSNFGMSWVRQTPDKRLEWVATISSGGRYTYYPDSVKGRFTISRDNAKNTLYLQMSSLRSEDTAMYYCARDYLYAMDYWGQGTSVTVSS VL: DVVMTQTPLSLPVSLGDQASISCRSSQSLVYSNGNTYLHWYLQKPGQSPKVLMYKVSNRFSGVSDRFSGSGSGTDFTLKISRVEAEDLGVYFCSQSTHVPLTFGAGTKLELK
-- reply 13.6

-- ask Tell me the measured fold over mIgG control of anti-LRP-8 ML199-11H1.5B2 murine antibody (muFc) (antibody, V domains shown, Mouse Fc form (muFc); also called ML199-11H1-5B2 muFc; anti-LRP-8,11H1.5B2) VH: EVQLVESGGDLVKPGGSLKLSCAASRFTFSNYGMSWVRQTPDKRLEWVATISSGGRYTYYPDSVKGRFTISRDNAKNTLYLQMSSLRSEDTAMYYCARDYLYAMDYWGQGTSVTVSS VL: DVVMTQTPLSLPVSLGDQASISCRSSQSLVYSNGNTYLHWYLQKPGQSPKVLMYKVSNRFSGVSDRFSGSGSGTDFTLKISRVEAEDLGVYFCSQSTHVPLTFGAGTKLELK , please.
-- reply 15.1

-- ask Using the record for anti-LRP-8 antibody ab58216 (mFc) (antibody, V domains shown, Mouse Fc form) VH: EVHLQQSGPEVVKPGASVKISCKASGYIISGYFLNWVKQSHGKSLEWVGRINPYSGDTFFNQKFKGKATLTVDKSSNTAHMELRSLTSEDSAVFYCAREDIGRFAYWGQGTLVTVSA VL: DVLMTQTPLSLPVSLGDQASISCRSSQTIVHSNGNTYLEWYLQKPGQSPKLLIYKVSNRFSGVPDRFSGSGSGTDFTLKISRVEAEDLGVYYCFQGSHAPPTFGGGTKLEIK , report its fold over mIgG control.
-- reply 17.3

-- ask Which fold over mIgG control value is on record for anti-LRP-8 ML201-2B4.2B1.2H10 murine antibody (muFc) (antibody, V domains shown, Mouse Fc form; also called ML201-2B4.2B1.2H10 muFc; CL-33867) VH: DVKLVASGGGLVKPGGSLKLSCAASGFTLSRYAMSWVRQTPEKRLEWVAYIRNGGDYIYYADTVKGRFTISRDNARNTLYLQMSSLKSEDTAMYYCTREGSYYNFDYWGQGTTLTVSS VL: DVLMTQTPLSLPVSLGDQASISCRSSQSIVHSNGNTYLEWYLQKPGQSPNLLIFKVSNRFSGVPDRFIGSGSGTDFTLKISRVEAEDLGVYYCFQGSHVPWTFGGGTKLEIK ?
-- reply 14.2

meta.source: patent US20160200813A1
